The measurements presented in this section are drawn from PubChem BioAssay AID1918991.

Test system: 186277-243-T-J2-PDC complex spheroid growth
ASSAY INFO: Anticancer human tumor 186277-243-T-J2-PDC patient-derived colon adenocarcinoma cell line growth inhibition [AhR]
STUDY CONDITIONS: second compound 3.16 µM; first compound 10 µM; stronger effect = lower value
I'd appreciate it if you could supply viability, T/C values for the items below.
# value in %; strip the unit string

Here NS(=O)(=O)OCC1CC(n2ccc3c(NC4CCc5ccccc54)ncnc32)CC1O (stereo not given) + CC(CO)NC(=O)c1cc(-c2ccc(Cl)cc2)nn(-c2cnn(C)c2)c1=O was tested on 186277-243-T-J2-PDC complex spheroid growth, and its viability, T/C came to 1.06

# value of viability, T/C, 186277-243-T-J2-PDC complex spheroid growth, item COc1cc(C2c3cc4c(cc3C(OC3OC5COC(C)OC5C(O)C3O)C3COC(=O)C23)OCO4)cc(OC)c1O (stereo not given) + Cc1cncc(-c2nc(NCCc3c[nH]c4ccccc34)c3ncn(C(C)C)c3n2)c1 = 19.9

Hey, 186277-243-T-J2-PDC complex spheroid growth data for NS(=O)(=O)OCC1CC(n2ccc3c(NC4CCc5ccccc54)ncnc32)CC1O (stereo not given) + Cc1cncc(-c2nc(NCCc3c[nH]c4ccccc34)c3ncn(C(C)C)c3n2)c1 : viability, T/C came out at 2.12

Item COc1ccc([C@@H](O)c2cc(-c3ncnc4cc(N5CCOCC5)ccc34)c(F)cc2Cl)nn1 + CC(CO)NC(=O)c1cc(-c2ccc(Cl)cc2)nn(-c2cnn(C)c2)c1=O ; assay system 186277-243-T-J2-PDC complex spheroid growth; viability, T/C reported as 18.1

Item COc1ccc([C@@H](O)c2cc(-c3ncnc4cc(N5CCOCC5)ccc34)c(F)cc2Cl)nn1 + Cc1ccccc1N=Nc1ccc(NC(=O)c2ccnn2C)c(C)c1 ; assay system 186277-243-T-J2-PDC complex spheroid growth; viability, T/C reported as 54.2

====

Tested on: 186277-243-T-J2-PDC complex spheroid growth
ASSAY INFO: Anticancer human tumor 186277-243-T-J2-PDC cell line growth inhibition [AhR];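 also: spheroids exposed to compounds for seven days before the viability read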
STUDY CONDITIONS: curve of first compound; second compound 1 µM
OUTCOME MEASURE: IC50

IC50 measured on Nc1ccn(C2OC(CO)C(O)C2(F)F)c(=O)n1 (stereo not drawn) + CC(CO)NC(=O)c1cc(-c2ccc(Cl)cc2)nn(-c2cnn(C)c2)c1=O = < 0.0316 µM

Looking up O=C(c1cc(Cc2n[nH]c(=O)c3ccccc23)ccc1F)N1CCN(C(=O)C2CC2)CC1 + Cc1ccccc1N=Nc1ccc(NC(=O)c2ccnn2C)c(C)c1 , I found its IC50 recorded as > 10 µM

# IC50 of Cn1ncnc1C1c2n[nH]c(=O)c3cc(F)cc(c23)NC1c1ccc(F)cc1 (stereo not drawn) + Cc1cncc(-c2nc(NCCc3c[nH]c4ccccc34)c3ncn(C(C)C)c3n2)c1 = > 0.1 µM

====

System: 186277-243-T-J2-PDC complex spheroid growth
ASSAY INFO: Anticancer human tumor 186277-243-T-J2-PDC cell line growth inhibition [AhR];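 also: spheroids exposed to compounds for seven days before the viability read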
STUDY CONDITIONS: curve of first compound; second compound 10 µM
pIC50: −log10 of the molar value.
OUTCOME MEASURE: pIC50

The reported value for COc1ccc([C@@H](O)c2cc(-c3ncnc4cc(N5CCOCC5)ccc34)c(F)cc2Cl)nn1 + Cc1cncc(-c2nc(NCCc3c[nH]c4ccccc34)c3ncn(C(C)C)c3n2)c1 in terms of pIC50 is > 7.50

The molecule listed as CCN(c1cc(-c2ccc(CN3CCOCC3)cc2)cc(C(=O)NCc2c(C)cc(C)[nH]c2=O)c1C)C1CCOCC1 + Cc1ccccc1N=Nc1ccc(NC(=O)c2ccnn2C)c(C)c1 shows pIC50 equal to < 5.52

Kindly note the recorded pIC50 for Nc1ncn(C2CC(O)C(CO)S2)c(=O)n1 (stereo not drawn) + Cc1cncc(-c2nc(NCCc3c[nH]c4ccccc34)c3ncn(C(C)C)c3n2)c1 , which is < 6.52
